Recorded activity at 1 µM, one value per entry.
- Tested on: S. mansoni schistosomulae
- method.notes: Motility assay on schistosomulae (pixel displacement, relative to DMSO control)
- Type: cell-based, Schistosoma mansoni
- condition: Schistosoma mansoni; schistosomulae, secondary screen, 24h exposure, read at D1, 1 µM; read-out: Fractional motility
Please give a number only; it is taken to be in %.

Check out these entries, answers already filled in.
Cc1cc(Nc2ncc(Cl)c(Nc3ccccc3S(=O)(=O)C(C)C)n2)c(OC(C)C)cc1C1CCNCC1 [LDK378] ... 7
COc1ccc2cc1Oc1ccc(cc1)C[C@H]1c3cc(c(OC)cc3CCN1C)Oc1c(OC)c(OC)cc3c1[C@H](C2)N(C)CC3 [Tetrandrine] ... -9
CCN(CC)CCOc1ccc(C(=C(Cl)c2ccccc2)c2ccccc2)cc1 [Clomifene] ... 12

Identify activity at 1 µM associated with the compound COC(=O)C1=C(C)NC(C)=C(C(=O)OCCN2CCN(C(c3ccccc3)c3ccccc3)CC2)C1c1cccc([N+](=O)[O-])c1 (stereo not shown) [Manidipine]
-79
